# Tested on: Saccharomyces cerevisiae;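 also: PSI is a weighted mean of sequencing reads over stability bins, variants kept only with over 10 reads, mCherry proximal and sfGFP distal, peptide attached via GGGS linker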
# method notes: protein stability index of tFT-peptide fusion (C-terminal peptide) (PSI (0-1 scale)); higher = more stable (slower turnover)
# condition set: genetic background: wild type; temperature: 30 C
Lab note: anything with protein stability index at or over 0.7 counts as YES; the rest go in NO.

Query block: Please tell me: is the sequence `SPPFPRPCPFTP` at or over 0.7 in terms of protein stability index?
Result block: NO

Query block: Please tell me: is the sequence `SGGGGWVVGGVA` at or over 0.7 in terms of protein stability index?
Result block: NO

Query block: Please tell me: is the sequence `SGAGVGWGCSSV` at or over 0.7 in terms of protein stability index?
Result block: NO

Query block: Please tell me: is the sequence `DGLWIYNINDGH` at or over 0.7 in terms of protein stability index?
Result block: YES

Query block: Please tell me: is the sequence `QLCRPRIFTNRG` at or over 0.7 in terms of protein stability index?
Result block: NO

Query block: Please tell me: is the sequence `GRRGPGRARRWG` at or over 0.7 in terms of protein stability index?
Result block: NO

Query block: Please tell me: is the sequence `SGPGGVGPTGGI` at or over 0.7 in terms of protein stability index?
Result block: NO

Query block: Please tell me: is the sequence `PLFRTPPPRPSP` at or over 0.7 in terms of protein stability index?
Result block: NO

Query block: Please tell me: is the sequence `LRNVPCLVFFWV` at or over 0.7 in terms of protein stability index?
Result block: NO

Query block: Please tell me: is the sequence `RWGLFIGIVIGF` at or over 0.7 in terms of protein stability index?
Result block: NO

Query block: Please tell me: is the sequence `SPTSLPLSMPTR` at or over 0.7 in terms of protein stability index?
Result block: YES

Query block: Please tell me: is the sequence `SRIGNADAAQGM` at or over 0.7 in terms of protein stability index?
Result block: YES

Query block: Please tell me: is the sequence `SAERLKIVNDRI` at or over 0.7 in terms of protein stability index?
Result block: YES

Query block: Please tell me: is the sequence `VVVFGWIGYLYL` at or over 0.7 in terms of protein stability index?
Result block: NO

Query block: Please tell me: is the sequence `TPPFPPSPFLTL` at or over 0.7 in terms of protein stability index?
Result block: YES

Query block: Please tell me: is the sequence `PSADRQSMRCRR` at or over 0.7 in terms of protein stability index?
Result block: NO

Query block: Please tell me: is the sequence `PPLPHPPLLAPP` at or over 0.7 in terms of protein stability index?
Result block: YES

Query block: Please tell me: is the sequence `KKTYQQKIEEVV` at or over 0.7 in terms of protein stability index?
Result block: YES

Query block: Please tell me: is the sequence `GQWGGATLGLVG` at or over 0.7 in terms of protein stability index?
Result block: YES

Query block: Please tell me: is the sequence `QNPRTDEAVRSP` at or over 0.7 in terms of protein stability index?
Result block: NO

Query block: Please tell me: is the sequence `IKRKQRKRKSEK` at or over 0.7 in terms of protein stability index?
Result block: YES

Query block: Please tell me: is the sequence `SGVVGLGCVPWF` at or over 0.7 in terms of protein stability index?
Result block: YES

Query block: Please tell me: is the sequence `VSISLCVLCPVF` at or over 0.7 in terms of protein stability index?
Result block: NO

Query block: Please tell me: is the sequence `AYNFMTSVVPGK` at or over 0.7 in terms of protein stability index?
Result block: YES

Query block: Please tell me: is the sequence `GLRFIAMNIQML` at or over 0.7 in terms of protein stability index?
Result block: NO

Query block: Please tell me: is the sequence `TLCCLVCSQGVV` at or over 0.7 in terms of protein stability index?
Result block: NO

Query block: Please tell me: is the sequence `GDRGGLARAGGA` at or over 0.7 in terms of protein stability index?
Result block: YES

Query block: Please tell me: is the sequence `PPPPSPRPRPAP` at or over 0.7 in terms of protein stability index?
Result block: NO

Query block: Please tell me: is the sequence `PPPPPSRPPPAL` at or over 0.7 in terms of protein stability index?
Result block: YES

Query block: Please tell me: is the sequence `LTWCGVSEAVIA` at or over 0.7 in terms of protein stability index?
Result block: NO

Query block: Please tell me: is the sequence `GIGGYACHFYVW` at or over 0.7 in terms of protein stability index?
Result block: NO

Query block: Please tell me: is the sequence `FCGWLGVYLVKG` at or over 0.7 in terms of protein stability index?
Result block: NO

Query block: Please tell me: is the sequence `SPLSPPPPRLSA` at or over 0.7 in terms of protein stability index?
Result block: YES

Query block: Please tell me: is the sequence `PPLPPRPAPIPP` at or over 0.7 in terms of protein stability index?
Result block: NO

Query block: Please tell me: is the sequence `GSVRGFGGGGEE` at or over 0.7 in terms of protein stability index?
Result block: NO

Query block: Please tell me: is the sequence `TGRNIGRVKIYL` at or over 0.7 in terms of protein stability index?
Result block: NO

Query block: Please tell me: is the sequence `LCVVVICCLMAR` at or over 0.7 in terms of protein stability index?
Result block: NO

Query block: Please tell me: is the sequence `TIETKVNSKDDS` at or over 0.7 in terms of protein stability index?
Result block: YES

Query block: Please tell me: is the sequence `RVSLSHPDRCAG` at or over 0.7 in terms of protein stability index?
Result block: YES

Query block: Please tell me: is the sequence `GLGALPVRVWEG` at or over 0.7 in terms of protein stability index?
Result block: YES

Query block: Please tell me: is the sequence `KVLRKQRLKGRE` at or over 0.7 in terms of protein stability index?
Result block: NO

Query block: Please tell me: is the sequence `CSSVTEFWWAVF` at or over 0.7 in terms of protein stability index?
Result block: YES

Query block: Please tell me: is the sequence `KGEGRNRRGVPR` at or over 0.7 in terms of protein stability index?
Result block: NO

Query block: Please tell me: is the sequence `GWWGCGGWGFVG` at or over 0.7 in terms of protein stability index?
Result block: NO

Query block: Please tell me: is the sequence `IPEEHKLTWIIP` at or over 0.7 in terms of protein stability index?
Result block: YES

Query block: Please tell me: is the sequence `FNISVGPATRRV` at or over 0.7 in terms of protein stability index?
Result block: NO

Query block: Please tell me: is the sequence `SVLAIASVIGCL` at or over 0.7 in terms of protein stability index?
Result block: NO

Query block: Please tell me: is the sequence `IFHWLYLLIALI` at or over 0.7 in terms of protein stability index?
Result block: NO

Query block: Please tell me: is the sequence `NFQLIKKHSKNN` at or over 0.7 in terms of protein stability index?
Result block: NO

Query block: Please tell me: is the sequence `PPRPPSSPLPPR` at or over 0.7 in terms of protein stability index?
Result block: YES

Query block: Please tell me: is the sequence `VGGFRVLCVGLG` at or over 0.7 in terms of protein stability index?
Result block: NO
